Reference source: PubChem BioAssay

Answer each item with its documented inhibition.
Assay Explanation: inhibitors of TNFa-induced NFkB p65 translocation, primary screen, imaging, HUVEC, MLSMR starter and 10KST1 sets (AID 438);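 further: compound added about 3h40 before a 20 min TNFalpha stimulation; signal is the nuclear over cytoplasmic p65 intensity ratio per well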
Details: HUVEC TNFa-induced p65 nuclear translocation; at 2 µM, active compounds read high, 0% TNFa-plus-vehicle, 100% no-TNFa wells
Dear colleague, please return just the value in %, with no unit written.

Entry under test: `Cc1cc(Oc2ccc(Cl)cc2)nc(-c2ccccc2O)n1` . Its inhibition was 11.3

Entry under test: O=C(CNCC1CCCO1)Nc1ccccc1-n1cccc1 (stereo unspecified) . Its inhibition was -11.4

Entry under test: `COc1cccc(/C=N/n2cnnc2)c1OCc1ccccc1` . Its inhibition was -2.6

Entry under test: `Cc1cc2oc(=O)cc(C)c2c(=O)o1` . Its inhibition was -15.8

Entry under test: `N#CCCn1ccc(NC(=O)c2ccc(Cl)cc2)n1` . Its inhibition was -6.3

Entry under test: O=C(Nc1ccncc1)C1CCCN(S(=O)(=O)c2cccc3cccnc23)C1 (stereo unspecified) . Its inhibition was 6.8

----------
Tested On: Alpha-2C adrenergic receptor (Homo sapiens) (UniProt P18825)
Sequence (P18825 whole entry, looked up): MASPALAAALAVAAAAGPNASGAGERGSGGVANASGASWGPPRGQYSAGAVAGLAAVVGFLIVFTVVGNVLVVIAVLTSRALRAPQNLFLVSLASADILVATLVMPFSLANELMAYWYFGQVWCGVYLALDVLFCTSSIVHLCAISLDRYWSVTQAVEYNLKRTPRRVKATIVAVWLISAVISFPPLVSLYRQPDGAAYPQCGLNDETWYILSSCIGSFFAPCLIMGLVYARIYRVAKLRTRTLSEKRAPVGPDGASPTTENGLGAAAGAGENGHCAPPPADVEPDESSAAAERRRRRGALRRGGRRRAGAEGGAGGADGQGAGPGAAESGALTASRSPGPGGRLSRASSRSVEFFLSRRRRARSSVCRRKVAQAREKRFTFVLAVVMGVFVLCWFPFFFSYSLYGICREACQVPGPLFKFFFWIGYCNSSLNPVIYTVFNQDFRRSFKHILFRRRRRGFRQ
Assay Explanation: compounds altering alpha2C-coupled GIRK flux – cell-based, HEK293 alpha2C/GIRK1/2, thallium flux, primary screen (AID 624);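 further: slope of fluorescence ratio to pre-addition baseline per second over 15 to 24 s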
Details: thallium flux BTC fluorescence, at 10 µM, actives lie on both sides
Experimental Endpoint: slope
The answer should be written as a number, with no unit following it.

Entry under test: Cc1cc(C(=O)NCCN2CCCCC2C)n(-c2ccccc2)n1 (stereo not drawn) . Its slope was 0.0056

Entry under test: CC1=C(C)[N+](=O)C2CCCCC2N1[O-] (stereo not drawn) . Its slope was 0.00784

Entry under test: `CCN(Cc1cc2ccccc2[nH]c1=O)S(=O)(=O)c1ccccc1` . Its slope was 0.00647

Entry under test: `c1ccc(-n2cnc3cc(NCc4ccccn4)ccc32)cc1` . Its slope was 0.00529

Entry under test: `CCc1nnc(NC(=O)c2cc3c(s2)CCCCC3)s1` . Its slope was 0.00621

Entry under test: Cc1ccc(CNC(=O)C2CCCN(S(=O)(=O)c3cnc[nH]3)C2)cc1 (stereo not drawn) . Its slope was 0.00735

Entry under test: Cc1nc2ccccn2c1/C(O)=C1\C(=O)C(=O)N(CCCN(C)C)C1c1ccc(F)cc1 (stereo not drawn) . Its slope was 0.00687

Entry under test: `O=C(CCn1cccc1)N1CCc2ccccc21` . Its slope was 0.00578

Entry under test: `CCC(CC)C(=O)NCCc1cc2ccc(C)cc2[nH]c1=O` . Its slope was 0.00557

Entry under test: CCC1CCc2c(sc3ncnc(N4CCOCC4)c23)C1 (stereo not drawn) . Its slope was 0.00589

Entry under test: `c1cc(-c2nc3ccccc3o2)nc(-c2nc3ccccc3o2)c1` . Its slope was 0.00362

Entry under test: `C=CCn1c(=O)c(C(=O)Nc2ccccc2C(=O)OCC)c(O)c2ccccc21` . Its slope was 0.00716

Entry under test: `CN1CCN(C(=O)c2ccc3c(=O)n(CCc4ccccc4)c(=S)[nH]c3c2)CC1` . Its slope was 0.00697

Entry under test: CCn1cc(C(=O)NCC2CCCO2)c(=O)c2cc(S(=O)(=O)N(C)C3CCCCC3)ccc21 (stereo not drawn) . Its slope was 0.00653

Entry under test: CC(=O)NC(C)c1nc2ccccc2n1C(C)C (stereo not drawn) . Its slope was 0.00604

Entry under test: `Cc1cccc(OCC(=O)N2CCN(C(=O)Cc3ccccc3)CC2)c1` . Its slope was 0.00476

Entry under test: `c1ccc(CN2C3=NCCCN3c3ccccc32)cc1` . Its slope was 0.00493

Entry under test: `CCOC(=O)N1CCN(C(=O)c2ccc3nc4ccsc4c(=O)n3c2)CC1` . Its slope was 0.00717

Entry under test: `O=C(Nc1ccccc1N1CCOCC1)c1ccc2ccccc2n1` . Its slope was 0.00386

Entry under test: COc1ccc(S(=O)(=O)NCC(c2cccnc2)N2CCN(c3ccc(F)cc3)CC2)cc1C (stereo not drawn) . Its slope was 0.00574

Entry under test: `CCCS(=O)(=O)N1CCN(Cc2ccc(OCc3ccccc3)c(OC)c2)CC1` . Its slope was 0.0062

Entry under test: CC1CC(C)CN(c2ncnc3c2cnn3-c2ccc(Cl)cc2)C1 (stereo not drawn) . Its slope was 0.00874

Entry under test: `Cc1sc2nc(CN3CCN(S(=O)(=O)c4cccc5nonc45)CC3)[nH]c(=O)c2c1C` . Its slope was 0.00421
